measured target: CDK2/CycA2 (Homo sapiens (Human))
assay method text: CDK2/CycA2 kinase Mobility Shift Assay
experimental conditions: CDK2/CycA2 12 nM, ATP Km 39 μM, 60 min, 28° C.
pIC50: −log10 of the molar value.
property measured: pIC50

The examples below pair each entry with its known result.
compound=CC(=O)c1c(C)c2cnc(Nc3ccc(N4CCC5(CC4)CNC5)cn3)nc2n(C2CCCC2)c1=O endpoint_value="< 5.30"
compound=CC(=O)c1c(C)c2cnc(Nc3ccc4c(n3)CCNC4)nc2n(C2CCCC2)c1=O endpoint_value="< 6.00"

Please state pIC50 for every compound in the list that follows.
1. CC(=O)c1c(C)c2cnc(Nc3ccc(N4CCN(C(=O)CCCCCCC(=O)NO)CC4)cn3)nc2n(C2CCCC2)c1=O
2. CC(=O)c1c(C)c2cnc(Nc3ccc(N4CC5CNCC(C5)C4)cn3)nc2n(C2CCCC2)c1=O
3. CC(=O)c1c(C)c2cnc(Nc3ccc(N4CCCC5(CCNCC5)C4)cn3)nc2n(C2CCCC2)c1=O
4. CC(=O)c1c(C)c2cnc(Nc3ccc(N4CCN(Cc5ccc(C(=O)NO)cc5)CC4)cn3)nc2n(C2CCCC2)c1=O
5. CC(=O)c1c(C)c2cnc(Nc3ccc(C(=O)NO)cn3)nc2n(C2CCCC2)c1=O
6. CC(=O)c1c(C)c2cnc(Nc3ccc(N4CCN(CCCCCCCC(=O)NO)CC4)cn3)nc2n(C2CCCC2)c1=O
7. CC(=O)c1c(C)c2cnc(Nc3ccc(N4CC5CNCC(C4)C5(F)F)cn3)nc2n(C2CCCC2)c1=O (single isomer, unassigned)

1. < 5.00
2. < 5.30
3. < 5.30
4. < 6.00
5. < 6.00
6. < 6.00
7. > 6.00

Please state pIC50 for every compound in the list that follows.
1. CC(=O)c1c(C)c2cnc(Nc3ccc(N4CCN(C(=O)CCCC(=O)NO)CC4)cn3)nc2n(C2CCCC2)c1=O
2. CC(=O)c1c(C)c2cnc(Nc3ccc(N4CC5CNCC(C4)O5)cn3)nc2n(C2CCCC2)c1=O
3. CC(=O)c1c(C)c2cnc(Nc3ccc(C(=O)NCCCCCCC(=O)NO)cn3)nc2n(C2CCCC2)c1=O

1. < 6.00
2. < 5.30
3. < 6.00

* * *

measured target: HDAC-1 (Homo sapiens (Human))
Sequence (Q13547 whole entry): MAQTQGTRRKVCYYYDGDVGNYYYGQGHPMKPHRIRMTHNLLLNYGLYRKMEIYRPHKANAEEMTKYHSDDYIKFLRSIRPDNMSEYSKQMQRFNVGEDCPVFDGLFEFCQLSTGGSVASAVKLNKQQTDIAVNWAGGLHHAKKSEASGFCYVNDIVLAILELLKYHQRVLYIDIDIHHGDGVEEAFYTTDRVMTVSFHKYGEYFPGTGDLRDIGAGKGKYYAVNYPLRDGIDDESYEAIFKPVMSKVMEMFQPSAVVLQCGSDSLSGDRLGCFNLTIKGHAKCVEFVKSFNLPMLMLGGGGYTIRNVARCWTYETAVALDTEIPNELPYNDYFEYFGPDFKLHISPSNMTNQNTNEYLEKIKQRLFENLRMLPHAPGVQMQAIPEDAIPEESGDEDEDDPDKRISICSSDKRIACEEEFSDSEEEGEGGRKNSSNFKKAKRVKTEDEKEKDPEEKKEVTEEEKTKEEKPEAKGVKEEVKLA
assay method text: HDAC-1 fluorogenic deacetylase assay
experimental conditions: recombinant, full-length protein, Ac-peptide-AMC substrate; read-out: HDAC1 (IC50)
property measured: IC50

compound="CC(=O)c1c(C)c2cnc(Nc3ccc(C(=O)NO)cn3)nc2n(C2CCCC2)c1=O [Compound 17]" measured_target="HDAC-1 (Homo sapiens (Human))" endpoint_value="< 0.5 µM"
compound="CC(=O)c1c(C)c2cnc(Nc3ccc(N4CCN(CCCCCCC(=O)NO)CC4)cn3)nc2n(C2CCCC2)c1=O [Compound 14]" measured_target="HDAC-1 (Homo sapiens (Human))" endpoint_value="< 0.5 µM"
compound="CC(=O)c1c(C)c2cnc(Nc3ccc(C(=O)NCCCCCCC(=O)NO)cn3)nc2n(C2CCCC2)c1=O [Compound 18]" measured_target="HDAC-1 (Homo sapiens (Human))" endpoint_value="< 0.05 µM"
compound="CC(=O)c1c(C)c2cnc(Nc3ccc(N4CCN(C(=O)CCCCCCC(=O)NO)CC4)cn3)nc2n(C2CCCC2)c1=O [Compound 12]" measured_target="HDAC-1 (Homo sapiens (Human))" endpoint_value="< 0.05 µM"

Please state IC50 for every compound in the list that follows.
1. CC(=O)c1c(C)c2cnc(Nc3ccc(N4CCN(Cc5ccc(C(=O)NO)cc5)CC4)cn3)nc2n(C2CCCC2)c1=O [Compound 16]
2. CC(=O)c1c(C)c2cnc(Nc3ccc(N4CCN(CCCCCCCC(=O)NO)CC4)cn3)nc2n(C2CCCC2)c1=O [Compound 15]

["< 0.5 µM", "< 0.5 µM"]
